Data provenance is patent US12116356B2.

experimentalProtocol: Stability of rat liver microsomes in vitro
Format: in vitro ADME
# Remaining (%) at 60 min per entry
Write the value in % as a bare number.

chemicalstring=Cc1c(C(=O)Nc2ccc(F)c(C#N)c2)c(C)n(C)c1C(=O)C(=O)NC(C)(C)CO valuekind="Remaining (%) at 60 min" measurementunits=% endpointresult=52.0

Problem: Query (compound): Cc1c(C(=O)Nc2ccc(F)c(C#N)c2)c(C)n(C)c1C(=O)C(=O)N[C@H](C)C(F)(F)F ; field requested: Remaining (%) at 60 min
Solution: 56.8

Problem: What would you report for Cc1c(C(=O)Nc2ccc(F)c(C#N)c2)c(Cl)n(C)c1C(=O)C(=O)NC(C)(C)C ?
Solution: 44.9

Problem: What would you report for Cc1c(C(=O)Nc2ccc(F)c(C#N)c2)c(C)n(C)c1C(=O)C(=O)NC1(C)CS(=O)(=O)C1 ?
Solution: 47
